Can you tell me IC50 for the items I'm about to list?
study target: Monoacylglycerol lipase ABHD6 (Mus musculus)
Sequence (Q8R2Y0 whole entry): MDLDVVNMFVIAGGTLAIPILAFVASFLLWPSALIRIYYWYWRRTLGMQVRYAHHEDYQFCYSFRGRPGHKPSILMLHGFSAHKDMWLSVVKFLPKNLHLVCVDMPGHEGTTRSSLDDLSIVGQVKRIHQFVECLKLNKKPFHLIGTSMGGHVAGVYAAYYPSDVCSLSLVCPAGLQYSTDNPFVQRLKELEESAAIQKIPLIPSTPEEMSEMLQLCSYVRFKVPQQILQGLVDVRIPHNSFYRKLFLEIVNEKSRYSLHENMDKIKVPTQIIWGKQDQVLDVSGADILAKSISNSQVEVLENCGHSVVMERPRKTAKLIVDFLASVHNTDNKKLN
assay explanation: Inhibition of ABHD6 in mouse brain membrane

Documented IC50 of O=C(Oc1ccc([N+](=O)[O-])cc1)N1CCN(Cc2cccc(Oc3cccc(C(F)(F)F)c3)c2)CC1 : 320 nM

Documented IC50 of COc1ccc(CN2CCN(C(=O)Oc3ccc([N+](=O)[O-])cc3)CC2)cc1 : 1270 nM

Documented IC50 of O=C(Oc1ccc([N+](=O)[O-])cc1)N1CCN(Cc2ccc(-c3ccccc3)cc2)CC1 : 1650 nM

Documented IC50 of COc1ccc(C(O)(c2ccc(OC)cc2)C2CCN(C(=O)Oc3ccc([N+](=O)[O-])cc3)C2)cc1 (configuration not stated) : > 50000 nM

Documented IC50 of O=C(Oc1ccc([N+](=O)[O-])cc1)N1CCN(Cc2cccc(Oc3ccccc3)c2)CC1 : 50 nM

Documented IC50 of COc1ccccc1C(O)(c1ccccc1OC)C1CCN(C(=O)Oc2ccc([N+](=O)[O-])cc2)CC1 : 1100 nM

Documented IC50 of COc1ccc(C(O)(c2ccc(OC)cc2)C2CCN(C(=O)Oc3ccc([N+](=O)[O-])cc3)CC2)cc1 : 2110 nM

Documented IC50 of O=C(Oc1ccc([N+](=O)[O-])cc1)N1CCN(Cc2ccccc2)CC1 : 740 nM

Documented IC50 of O=C(Oc1ccc([N+](=O)[O-])cc1)N1CCC(C(O)(c2ccc(Cl)cc2)c2ccc(Cl)cc2)CC1 : 180 nM

Documented IC50 of O=C(Oc1ccc([N+](=O)[O-])cc1)N1CCC2(CC1)OC2(c1ccccc1)c1ccccc1 : 380 nM

Documented IC50 of O=C(Oc1ccc([N+](=O)[O-])cc1)N1CCN(Cc2cc(Br)ccc2O)CC1 : 130 nM

Documented IC50 of O=C(Oc1ccc([N+](=O)[O-])cc1)N1CCN(Cc2ccccc2-c2ccccc2)CC1 : 2860 nM

Documented IC50 of O=C(Oc1ccc([N+](=O)[O-])cc1)N1CCN(Cc2cccc(Oc3ccccn3)c2)CC1 : 60 nM

Documented IC50 of O=C(Oc1ccc([N+](=O)[O-])cc1)N1CCN(C2c3ccccc3Oc3ccccc32)CC1 : 2120 nM

Documented IC50 of O=C(Oc1ccc([N+](=O)[O-])cc1)N1CCN(Cc2ccc(-c3ccccc3)s2)CC1 : 220 nM

Documented IC50 of COc1ccc(C(c2ccc(OC)cc2)C2CCN(C(=O)Oc3ccc([N+](=O)[O-])cc3)CC2)cc1 : 550 nM

Documented IC50 of COc1cccc(C(O)(c2cccc(OC)c2)C2CCN(C(=O)Oc3ccc([N+](=O)[O-])cc3)CC2)c1 : 460 nM

====

study target: UniProt:Q8R2Y0
assay explanation: Inhibition of ABHD6 in mouse brain membrane
quantity name: IC50 (µM)
Your answer should be a plain number; it is taken to be in µM.

Documented IC50 of O=C(Oc1ccc([N+](=O)[O-])cc1)N1CCN(Cc2ccc3ccccc3n2)CC1 : 0.49

Documented IC50 of O=C(Oc1ccc([N+](=O)[O-])cc1)N1CCN(Cc2ccc(-c3ccccc3)o2)CC1 : 0.22

Documented IC50 of O=C(Oc1ccc([N+](=O)[O-])cc1)N1CCN(Cc2ccc(-c3ccccc3OC(F)(F)F)o2)CC1 : 0.18

Documented IC50 of O=C(Oc1ccc([N+](=O)[O-])cc1)N1CCC(C(O)(c2ccc3c(c2)OCO3)c2ccc3c(c2)OCO3)CC1 : 3.27

Documented IC50 of COc1ccc(C(O)(c2ccc(OC)c(OC)c2)C2CCN(C(=O)Oc3ccc([N+](=O)[O-])cc3)CC2)cc1OC : 6.96

Documented IC50 of CN(C)c1ccc(C(O)(c2ccc(N(C)C)cc2)C2CCN(C(=O)Oc3ccc([N+](=O)[O-])cc3)CC2)cc1 : 1.02

Documented IC50 of O=C(Oc1ccc([N+](=O)[O-])cc1)N1CCC(C(O)(c2ccccc2)c2ccccc2)CC1 : 1.1

Documented IC50 of Cc1ccc(Oc2cccc(CN3CCN(C(=O)Oc4ccc([N+](=O)[O-])cc4)CC3)c2)cc1 : 1.13
